Where these numbers come from: ChEMBL document CHEMBL1177647

Tested on: Kidney
Assay Explanation: Biodistribution in ddY mouse kidney at 0.2 to 0.4 uCi, iv after 30 mins
Format: ADME, organism-based
Recorded Conditions: in vivo, 0.5 h
This section presents compounds with their documented Drug uptake values.
Reply with just the number (in % ID/g).

# example entries with known answers
{"Smiles Representation": "COc1ccc(-c2cc3cc([125I])ccc3[nH]2)cc1", "System Name": "Kidney", "Drug uptake (% ID/g)": 2.89}
{"Smiles Representation": "CNc1ccc(-c2cc3cc([125I])ccc3[nH]2)cc1", "System Name": "Kidney", "Drug uptake (% ID/g)": 3.84}
{"Smiles Representation": "CN(C)c1ccc(-c2cc3cc([125I])ccc3[nH]2)cc1", "System Name": "Kidney", "Drug uptake (% ID/g)": 4.58}

In the following, a different compound is considered.
**Query** Assign Drug uptake to the following record: OCCOc1ccc(-c2cc3cc([125I])ccc3[nH]2)cc1
**Result** 6.77
